Test system: Rattus norvegicus
Test: Antiinflammatory activity in rat assessed as inhibition of carrageenan-induced paw oedema at 10 mg/kg, po after 3 hrs
Format: functional
Parameters: scale not given: the % may be the effect or the level left
Assay endpoint: Activity (%)

- Compound: "N#Cc1c(N)nc2[nH]c(=S)[nH]c(=O)c2c1-c1ccc(N2CCOCC2)cc1"
  Measured number: 36
- Compound: "O=C([O-])Cc1ccccc1Nc1c(Cl)cccc1Cl.[Na+] [DICLOFENAC SODIUM]"
  Measured number: 33
- Compound: "N=c1sc(=S)[nH]c2nc3[nH]c(=S)[nH]c(=O)c3c(-c3ccc(N4CCOCC4)cc3)c12"
  Measured number: 21
- Compound: "CN1CCN(c2ccc(-c3c4c(N)ncnc4nc4[nH]c(=S)[nH]c(=O)c34)cc2)CC1"
  Measured number: 31
- Compound: "O=c1[nH]cnc2nc3[nH]c(=S)[nH]c(=O)c3c(-c3ccc(N4CCOCC4)cc3)c12"
  Measured number: 29
- Compound: "Cc1nc2nc3[nH]c(=S)[nH]c(=O)c3c(-c3ccc(N4CCCCC4)cc3)c2c(=O)[nH]1"
  Measured number: 26
- Compound: "Nc1ncnc2nc3[nH]c(=S)[nH]c(=O)c3c(-c3ccc(N4CCOCC4)cc3)c12"
  Measured number: 30
- Compound: "Nc1nc(=S)[nH]c2nc3[nH]c(=S)[nH]c(=O)c3c(-c3ccc(N4CCOCC4)cc3)c12"
  Measured number: 29
- Compound: "CN1CCN(c2ccc(-c3c(C#N)c(N)nc4[nH]c(=S)[nH]c(=O)c34)cc2)CC1"
  Measured number: 31
- Compound: "N=c1sc(=S)[nH]c2nc3[nH]c(=S)[nH]c(=O)c3c(-c3ccc(N4CCCCC4)cc3)c12"
  Measured number: 25
- Compound: "O=c1[nH]cnc2nc3[nH]c(=S)[nH]c(=O)c3c(-c3ccc(N4CCCCC4)cc3)c12"
  Measured number: 27
- Compound: "Nc1nc(=O)[nH]c2nc3[nH]c(=S)[nH]c(=O)c3c(-c3ccc(N4CCCCC4)cc3)c12"
  Measured number: 29
- Compound: "N#Cc1c(N)nc2[nH]c(=S)[nH]c(=O)c2c1-c1ccc(N2CCCCC2)cc1"
  Measured number: 29
- Compound: "CN1CCN(c2ccc(-c3c4c(=O)[nH]c(=S)[nH]c4nc4[nH]c(=S)sc(=N)c34)cc2)CC1"
  Measured number: 22
- Compound: "Nc1ncnc2nc3[nH]c(=S)[nH]c(=O)c3c(-c3ccc(N4CCCCC4)cc3)c12"
  Measured number: 32

###

Test system: Rattus norvegicus
Experiment: Antiinflammatory activity in rat assessed as inhibition of carrageenan-induced paw oedema at 10 mg/kg, po after 1 hr
Type: functional
Set-up: scale not given: the % may be the effect or the level left
// reported Activity for each item listed

- Compound string: "N#Cc1c(N)nc2[nH]c(=S)[nH]c(=O)c2c1-c1ccc(N2CCCCC2)cc1"
  Activity: "37%"
- Compound string: "O=c1[nH]cnc2nc3[nH]c(=S)[nH]c(=O)c3c(-c3ccc(N4CCOCC4)cc3)c12"
  Activity: "36%"
- Compound string: "N=c1sc(=S)[nH]c2nc3[nH]c(=S)[nH]c(=O)c3c(-c3ccc(N4CCOCC4)cc3)c12"
  Activity: "28%"
- Compound string: "Nc1nc(=S)[nH]c2nc3[nH]c(=S)[nH]c(=O)c3c(-c3ccc(N4CCOCC4)cc3)c12"
  Activity: "40%"
- Compound string: "O=c1[nH]cnc2nc3[nH]c(=S)[nH]c(=O)c3c(-c3ccc(N4CCCCC4)cc3)c12"
  Activity: "34%"
- Compound string: "N=c1sc(=S)[nH]c2nc3[nH]c(=S)[nH]c(=O)c3c(-c3ccc(N4CCCCC4)cc3)c12"
  Activity: "38%"
- Compound string: "CN1CCN(c2ccc(-c3c(C#N)c(N)nc4[nH]c(=S)[nH]c(=O)c34)cc2)CC1"
  Activity: "40%"
- Compound string: "CN1CCN(c2ccc(-c3c4c(=O)[nH]c(=S)[nH]c4nc4[nH]c(=S)sc(=N)c34)cc2)CC1"
  Activity: "32%"
- Compound string: "Cc1nc2nc3[nH]c(=S)[nH]c(=O)c3c(-c3ccc(N4CCCCC4)cc3)c2c(=O)[nH]1"
  Activity: "33%"
- Compound string: "N#Cc1c(N)nc2[nH]c(=S)[nH]c(=O)c2c1-c1ccc(N2CCOCC2)cc1"
  Activity: "48%"
